The reported numbers originate from patent US20210130436A1.

biological target: T1, human CTLA4 (CTLA-4), full-length, on CHO cells (human, UniProt P16410 36-223); assay: flow cytometry, CHO cells stably expressing CTLA4
T1 construct: also called huCTLA4
T1 sequence (P16410 36-223): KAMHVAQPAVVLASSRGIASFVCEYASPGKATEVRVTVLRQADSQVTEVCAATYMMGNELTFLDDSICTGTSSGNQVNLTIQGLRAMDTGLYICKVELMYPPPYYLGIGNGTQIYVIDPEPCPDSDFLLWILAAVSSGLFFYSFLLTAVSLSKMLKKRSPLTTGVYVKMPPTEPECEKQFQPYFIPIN
measurement-type: MFI at 33.3 nM (MFI)
Give your result in MFI as a bare value.

[
  {
    "binder": "variant CD80 IgV-Fc L85Q (Fc fusion, not shown: small tags and cut ends; a dimerising Fc or GST) VIHVTKEVKEVATLSCGHNVSVEELAQTRIYWQKEKKMVLTMMSGDMNIWPEYKNRTIFDITNNLSIVILALRPSDEGTYECVVQKYEKDAFKREHLAEVTLSVKAD",
    "MFI at 33.3 nM (MFI)": 3000
  }
]

Task item: Any idea what MFI at 33.3 nM was measured for variant CD80 IgV-Fc M47L/V68M/L85Q (Fc fusion, not shown: small tags and cut ends; a dimerising Fc or GST) VIHVTKEVKEVATLSCGHNVSVEELAQTRIYWQKEKKMVLTMMSGDLNIWPEYKNRTIFDITNNLSIMILALRPSDEGTYECVVQKYEKDAFKREHLAEVTLSVKAD ?
Reply: 11100
